test system: HCT116 WT cells; assay: HCT116 WT cell proliferation / viability (CellTiter-Glo, 6 days); type: cell-based; details: Homo sapiens, HCT-116, 144 h, HCT116 WT cells, 6 days, CellTiter-Glo; read-out: HCT-116 WT IC50
pIC50: −log10 of the molar value.
EXPERIMENTAL READOUT: pIC50

COCC(C)N(Cc1ccc(C(F)(F)F)nn1)C(=O)c1cc2c3c(c(N)nc2cc1Cl)COC3 (racemic) [Example 487] :: 5.86
CCN(Cc1ccc(C(F)(F)F)cn1)C(=O)c1cc2c3c(c(N)nc2cc1F)[C@@H](C)OC3 [Example 556] :: 6.34
CC(C)N(Cc1ccc(C2CC2)cn1)C(=O)c1ccc2nc(N)c3c(c2c1)CO[C@@H]3C [Example 377] :: 5.69
CC(C)N(Cc1ccc(C2CC2)cn1)C(=O)c1cc2c3c(c(N)nc2cc1Cl)COC3 [Example 379] :: 6.12

(I) C[C@H]1OCc2c1c(N)nc1ccc(C(=O)N(Cc3ccc(C(F)(F)F)cn3)C34CC(C3)C4)cc21 [Example 380]
(II) CO[C@@H]1COCC[C@H]1N(Cc1ccc(C(F)(F)F)cn1)C(=O)c1ccc2nc(N)c3c(c2c1)COC3C (stereo partly shown) [Example 902]
Which record shows the lower pIC50: the first, I , or the second, II ? Bench note: the answer is the label of the chosen record.
I

----------
system: HCT116 WT cells; test: HCT116 WT cell proliferation / viability (CellTiter-Glo, 6 days); format: cell-based; conditions: Homo sapiens, HCT-116, 144 h, HCT116 WT cells, 6 days, CellTiter-Glo; read-out: HCT-116 WT IC50
EXPERIMENTAL READOUT: IC50 (µM)

Use the examples below as a reference point.
CCN(Cc1ccc(C(F)(F)F)cn1)C(=O)c1ccc2nc(N)c3ccncc3c2c1 [Example 428] :: 1.25
CC(C)N(Cc1ccc(C(F)(F)F)cn1)C(=O)c1ccc2nc(N)c3c(c2c1)CO[C@@H]3C [Example 384] :: 1.38
CN(Cc1ccc(C#N)cn1)C(=O)c1cc2c3c(c(N)nc2cc1F)COC3 [Example 479] :: 17.1

(P) Nc1nc2cnc(C(=O)N(Cc3ccc(C(F)(F)F)cn3)c3cnn(C(F)(F)F)c3)cc2c2c1COC2 [Example 732]
(Q) CCN(C(=O)c1ccc2nc(N)c3c(c2c1)COC3)[C@H](C)c1ccc(C(F)(F)F)cn1 (single isomer, unassigned) [Example 822]
Which entry has a larger number for IC50, P or Q ? Bench note: the answer is the label of the chosen record.
Q

(1) C[C@H](c1ncccn1)N(Cc1ccc(C(F)F)cn1)C(=O)c1ccc2nc(N)c3c(c2c1)CCC3 [Example 623]
(2) CCN(Cc1cnc(C(F)(F)F)cn1)C(=O)c1cc2c3c(c(N)nc2cc1F)COC3 [Example 497]
Which record shows the lower IC50: the first, 1 , or the second, 2 ? Bench note: the answer is the label of the chosen record.
1

(P) Cn1ncc2c3cc(C(=O)N(Cc4ccc(OCC(F)(F)F)nn4)CC4CC4)c(F)cc3nc(N)c21 [Example 817]
(Q) CC(C)N(Cc1ccc(C#N)cn1)C(=O)c1ccc2nc(N)c3c(c2c1)COC3 [Example 301]
Which entry has a larger number for IC50, P or Q ? Bench note: the answer is the label of the chosen record.
Q

(1) CCOc1ccc(CN(CC2CC2)C(=O)c2cc3c4c(c(N)nc3cn2)COC4)nn1 [Example 753]
(2) CC(C)N(C(=O)c1ccc2nc(N)c3c(c2c1)CO[C@@H]3C)[C@H](C)c1ccc(C(F)(F)F)cn1 (single isomer, unassigned) [Example 839]
(3) Cc1cc2nc(N)c3cnn(C)c3c2cc1C(=O)N(C)[C@@H](C)c1ccc(F)cn1 (single isomer, unassigned) [Example 591]
Your job: order these 3 records by IC50, ascending. Record the ranking as a list of labels in the requested order.
1, 2, 3
(1: 3.89 µM, 2: 9.52 µM, 3: 32.1 µM)
